System: ependymoma cells grown in a monolayer (bulk cancer cells)
Assay: MTT chemosensitivity assay, bulk cancer cells of the Example 1 ependymoma sample
Type: cell-based, human
Conditions: 1-hour pulse, MTT 24-hours after treatment, FIG. 5
Measured attribute: sensitivity to chemotherapy (MTT cell viability)

Compound	Result
N.N.[Cl][Pt][Cl] [cisplatin]	sensitive
CCc1c2c(nc3ccc(OC(=O)N4CCC(N5CCCCC5)CC4)cc13)-c1cc3c(c(=O)n1C2)COC(=O)[C@]3(O)CC	sensitive
COc1cccc2c1C(=O)c1c(O)c3c(c(O)c1C2=O)C[C@@](O)(C(=O)CO)C[C@@H]3O[C@H]1C[C@H](N)[C@H](O)[C@H](C)O1	sensitive

Entry source: patent US9316632B2
